# Test Details: Cellular metabolic activity, resazurin reduction assay, HaCaT
# Format: cell-based, human
# Condition Context: human, HaCaT keratinocytes; HaCaT, resazurin, 24 h, concentrations greater than or equal to 500 µM; read-out: cell viability
Recorded Metric: viability at 24 h

1. O=C1O[C@H]([C@@H](O)CO)C(O)=C1O[C@H]1O[C@H](CO)[C@@H](O)[C@H](O)[C@H]1O > 70%
